From: patent US11814391B2

Target: Human Factor D (Homo sapiens (Human))
Assay: Human Factor D assay
Type: biochemical
pIC50: −log10 of the molar value.
ENDPOINT_LABEL: pIC50

Please provide the recorded pIC50 for CC(=O)c1nn2c3c(cc(-c4cnc(C)nc4)cc13)CCCCCCCCCCN([C@@H](C)C(=O)Nc1nc(Br)ccc1C)C(=O)C2 [Compound 35] , tested on Human Factor D (Homo sapiens (Human)). 5.00 to 6.00

====

Biological target: Human Factor D (Homo sapiens (Human), UniProt P00746)
Sequence (P00746 26-253): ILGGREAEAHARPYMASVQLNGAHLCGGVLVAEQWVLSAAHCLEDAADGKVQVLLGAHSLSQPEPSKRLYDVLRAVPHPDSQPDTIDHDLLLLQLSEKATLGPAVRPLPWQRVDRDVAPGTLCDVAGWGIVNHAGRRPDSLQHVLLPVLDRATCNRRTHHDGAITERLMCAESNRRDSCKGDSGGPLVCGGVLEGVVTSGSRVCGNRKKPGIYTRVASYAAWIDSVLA
Experiment: Human Factor D assay
Assay type: biochemical
Conditions: Human Factor D 80 nM, substrate Z-L-Lys-SBzl, A405; read-out: IC50 (Stars)
pIC50: −log10 of the molar value.
pIC50 listing for selected molecules.

Worked set:
Item under review: CC(=O)c1nn2c3c(cc(-c4cnc(C)nc4)cc13)CCCCCCCCCc1ccc(Br)nc1NC(=O)[C@H](C)N(C)C(=O)C2 . Reported pIC50? < 5.00

Continue with COc1cc2c3c(c1)c(C(C)=O)nn3CC(=O)N1[C@H](C(=O)Nc3nc(C(F)(F)F)ccc3C)C[C@@]3(CNC(=O)CCCCCC2)C[C@@H]13 > 6.00

Continue with CC(=O)c1nn2c3c(cc(-c4cnc(C)nc4)cc13)CCCCC[C@@H](C)C(=O)NC[C@@]13C[C@@H](C(=O)Nc4nc(C(F)(F)F)ccc4C)N(C(=O)C2)[C@@H]1C3 > 6.00

Continue with CC(=O)c1nn2c3c(cc(NCC(C)C)cc13)CCCCCCC(=O)NC[C@@]13C[C@@H](C(=O)Nc4nc(C(F)(F)F)ccc4C)N(C(=O)C2)[C@@H]1C3 > 6.00

Now look at this one.
Item under review: CC(=O)c1nn2c3c(cc(-c4cnc(C)cn4)cc13)CCCCC[C@@H](C)C(=O)NC[C@@]13C[C@@H](C(=O)Nc4nc(C(F)(F)F)ccc4C)N(C(=O)C2)[C@@H]1C3 . Reported pIC50? > 6.00
